Cited source for all entries: patent US20220249685A1

# target or system: T1, human MSLN expressed on tumor cell lines (OVCAR3, NCI-N87) or on transfected HEK-293 cells (human, UniProt Q13421 296-598)
# T1 construct: whole, on cells; also called human mesothelin
# T1 sequence (Q13421 other isoform, or with tags, fused parts or gaps limits assumed): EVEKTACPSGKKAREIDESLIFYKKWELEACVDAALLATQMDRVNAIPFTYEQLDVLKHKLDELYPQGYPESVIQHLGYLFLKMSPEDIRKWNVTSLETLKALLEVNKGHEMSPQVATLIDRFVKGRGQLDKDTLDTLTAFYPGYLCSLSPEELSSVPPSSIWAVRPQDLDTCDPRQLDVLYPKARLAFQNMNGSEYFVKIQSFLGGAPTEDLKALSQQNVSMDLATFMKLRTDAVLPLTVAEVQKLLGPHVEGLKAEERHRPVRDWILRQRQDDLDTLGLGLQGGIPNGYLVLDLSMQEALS
# assay procedure: flow cytometry on NCI-N87 cells, anti-huIgG1-PE, MFI (Geo Mean)
assay endpoint: EC50 (read off the curve)

Study these solved cases before continuing.
INSERT INTO measurements (binder, result) VALUES
  ('Antibody 55 (VH1-e G27Y, G55A, R66K, V67A, A71V / VKIII-L6) (antibody, V domains shown) VH: QVQLVQSGAEVKKPGSSVKVSCKASGYTFSGYTMNWVRQAPGQGLEWMGLITPYNAASSYNQKFRGKATITVDKSTSTAYMELSSLRSEDTAVYYCARGGYDGRGFDYWGQGTTVTVSS VL: EIVLTQSPATLSLSPGERATLSCSASSSVSYMHWYQQKPGQAPRLLIYDTSKLASGIPARFSGSGSGTDFTLTISSLEPEDFAVYYCQQWSKHPLTFGGGTKVEIK', '~0.1 nM'),
  ('Antibody 56 (VH1-e CDRgraft G55A / VKI-L12) (antibody, V domains shown) VH: QVQLVQSGAEVKKPGSSVKVSCKASGGTFSGYTMNWVRQAPGQGLEWMGLITPYNAASSYNQKFRGRVTITADKSTSTAYMELSSLRSEDTAVYYCARGGYDGRGFDYWGQGTTVTVSS VL: DIQMTQSPSTLSASVGDRVTITCSASSSVSYMHWYQQKPGKAPKLLIYDTSKLASGVPSRFSGSGSGTEFTLTISSLQPDDFATYYCQQWSKHPLTFGGGTKVEIK', '~0.2 nM'),
  ('55-IgG1-TLR8 conjugate (antibody, V domains shown, cysteines freed by TCEP reduction may carry the drug-linker; positions not given; cysteines freed by TCEP reduction carry the TLR8 agonist drug-linker; positions not given, also called 55-TLR8) VH: QVQLVQSGAEVKKPGSSVKVSCKASGYTFSGYTMNWVRQAPGQGLEWMGLITPYNAASSYNQKFRGKATITVDKSTSTAYMELSSLRSEDTAVYYCARGGYDGRGFDYWGQGTTVTVSS VL: EIVLTQSPATLSLSPGERATLSCSASSSVSYMHWYQQKPGQAPRLLIYDTSKLASGIPARFSGSGSGTDFTLTISSLEPEDFAVYYCQQWSKHPLTFGGGTKVEIK', '~0.2 nM');

// switching to the query binder
Q: Tell me the measured EC50 (read off the curve) of 56-IgG1-TLR8 conjugate (antibody, V domains shown, cysteines freed by TCEP reduction may carry the drug-linker; positions not given; cysteines freed by TCEP reduction carry the TLR8 agonist drug-linker; positions not given, also called 56-TLR8) VH: QVQLVQSGAEVKKPGSSVKVSCKASGGTFSGYTMNWVRQAPGQGLEWMGLITPYNAASSYNQKFRGRVTITADKSTSTAYMELSSLRSEDTAVYYCARGGYDGRGFDYWGQGTTVTVSS VL: DIQMTQSPSTLSASVGDRVTITCSASSSVSYMHWYQQKPGKAPKLLIYDTSKLASGVPSRFSGSGSGTEFTLTISSLQPDDFATYYCQQWSKHPLTFGGGTKVEIK , please.
A: ~0.3 nM
